This section presents IC50 values reported for Hepatocyte growth factor receptor (Homo sapiens, UniProt P08581) in the literature.

CNc1ccc2nnc(Sc3ccc4nccc(Sc5nnc6ccc(NC)nn56)c4c3)n2n1 : > 10000 nM
CCOC(=O)Nc1cccc(Cn2nc(-c3ccc(C(=O)NCCN4CCCCC4)cc3)ccc2=O)c1 : 10 to 1000 nM
O=C(c1cnc2c(c1)N(Cc1cc(Cl)ccc1Cl)CCN2)N1CCN(c2ccccc2C(F)(F)F)CC1 : > 100000 nM
Cc1ccc2nnc(Sc3ccc4ncc(-c5cn[nH]c5)cc4c3)n2n1 : < 100 nM
CC(c1ccc2nc(NC(=O)C3CC3)cn2n1)c1nnc2ccc(-c3cccc(C#N)c3)cn12 (stereo not shown) : < 30 nM

Form field - read-out: IC50; system: Hepatocyte growth factor receptor (Homo sapiens, UniProt P08581); submitted item: CCn1cc(C(=O)Nc2cc(F)c(Oc3ccnc4cc(OCCOC)c5c(c34)OCCO5)cc2C)c(=O)n(-c2ccc(F)cc2)c1=O ≤ 50 nM

Cool, now CCCn1cc(-c2cnc3ccc(Cc4nnc5ccc(C)nn45)cc3c2)cn1 < 100 nM

Now this one: Cn1cc(-c2cnc3ccc(Sc4nnc5ccc(-c6cnn(C)c6)nn45)cc3c2)cn1 < 100 nM

* * *

Multi-source literature compilation: IC50 on UniProtKB P08581.

O=C(NCc1csc(-c2ccccc2)n1)c1cnc2c(c1)N(Cc1cc(Cl)ccc1Cl)CCN2 : > 100 µM
CN(C)CCCOC(=O)Nc1cccc(Cn2nc(-c3cccc(C#N)c3)ccc2=O)c1 : 0.01 to 1 µM
COc1cc(-c2cc3c(s2)Cc2c(-c4ccc5cnn(C)c5c4)n[nH]c2-3)ccc1C(=O)N1CCOCC1 : > 1 µM
CCc1nn2c(Cc3ccc4ncc(-c5cnn(C)c5)cc4c3)nnc2s1 : < 0.1 µM

Find IC50 (UniProtKB P08581) for the entry COc1ccc(F)cc1C(C)Oc1cc(-c2scnc2CO)cnc1N (stereo not drawn) 8.29 µM

Would you kindly repeat that for COc1ccc(F)cc1C(C)Oc1cc(-c2cccn(C)c2=O)cnc1N (stereo not drawn) ? > 20 µM

Let us now turn to Cc1ccc2nnc(Sc3ccc4ncc(-c5cnn(CC(=O)O)c5)cc4c3)n2n1 < 0.1 µM

Field entry: CC(C)NCc1nn2c(Cc3ccc4ncc(-c5cnn(C)c5)cc4c3)nnc2s1 < 0.1 µM

Next record, please: Cn1ncc2ccc(-c3n[nH]c4c3Cc3sc(-c5ccc(CN6CCOCC6)s5)cc3-4)cc21 > 1 µM

Moving on to O=C(O)c1ccc(-c2cnc3c(c2)N(Cc2ccccc2OC(F)(F)F)CCN3)cc1 > 100 µM

Then CNc1ccc2nnc(Sc3ccc4ncc(-c5cnn(C)c5)cc4c3)n2n1 ? < 0.1 µM

# iterate: CCOC(=O)Nc1cccc(Cn2nc(-c3cccc(C(=O)NCCNC(=O)OC(C)(C)C)c3)ccc2=O)c1 0.01 to 1 µM

// next record CN1CCCN(C(=O)c2cccc(-c3cnc(N)c(-c4nc5ccccc5s4)c3)c2)CC1 0.1 to 1 µM

Record: CP(C)(=O)Cn1cc(-c2cnc3nnn(Cc4ccc5ncccc5c4)c3n2)cn1 0.021 to 0.1 µM

Also Cn1cc(-c2cnc3ccc(Cc4nnc5sc(CNCC6CC6)nn45)cc3c2)cn1 ? < 0.1 µM

Next entry: CCOC(=O)Nc1cccc(Cn2nc(-c3cccc(OCCCCOC)c3)ccc2=O)c1 0.01 to 1 µM

Repeat for the following molecule: Fc1cc2n[nH]cc2cc1C(F)(F)c1nnc2ccc(-c3cnn(C4CC4)c3)nn12 1.44 µM

What about this molecule? Nc1ncc(-c2ccccc2)cc1-c1cc2c(Cl)ccc(F)c2cn1 > 20 µM

* * *

Assay read-out pIC50 on Hepatocyte growth factor receptor (Homo sapiens); records merged from the literature.
pIC50: −log10 of the molar value.

Nc1ncc(-c2cccc(C(=O)NCCCN3CCCC3)c2)cc1-c1nc2ccccc2s1 : 4.70 to 6.00
O=C(NCc1ccccn1)NCc1c[nH]c2ncccc12 : ≥ 5.00
CC(C)c1ccc2nnc(Sc3ccc4nc(NC(=O)C5CC5)cn4n3)n2c1 : > 7.52
N#Cc1cccc(-c2ccc3nnc(Cc4c(F)cc5ncccc5c4F)n3n2)c1 : > 7.00

Provide value of pIC50 for this record tested with Hepatocyte growth factor receptor (Homo sapiens): CNCCOc1cc2nccc(Oc3c(F)cc(NC(=O)c4cnccc4OCCCF)cc3F)c2cc1OC ≥ 7.00

* * *

pIC50: −log10 of the molar value.
Multi-source literature compilation: pIC50 on Hepatocyte growth factor receptor (Homo sapiens).

Look over these answered cases.
Cn1cc2cc(C(F)(F)c3nnc4ncc(-c5cnn(C6CC6)c5)cn34)c(F)cc2n1 : 7.42
O=C(Nc1ccc(Oc2ccnc(NC(=O)C3CC3)c2)cn1)c1c2n(n(-c3ccccc3)c1=O)CCOC2 : 7.92
O=C(Nc1cc(F)c(Oc2ccnc3cc(OCCO)ccc23)c(F)c1)c1cnccc1OC1CC1 : ≥ 7.00

# lookup: pIC50 of Cc1ccc2nnc(Cc3c(F)cc4ncc(Br)cc4c3F)n2n1 5.00 to 6.00

Input CN1CCN(c2ccc(-c3cnc4c(c3)N(Cc3cccc(F)c3C(F)(F)F)CCN4)cn2)CC1 5.00 to 6.00

What about this molecule? CCc1nn2c(Sc3ccc4ncc(-c5cnn(C)c5)cc4c3)nnc2s1 > 7.00

What about this molecule? Nc1ncc(-c2cnn(CCC(=O)N3CCCC3)c2)cc1-c1nc2ccccc2s1 6.00 to 7.00

Repeat for the following molecule: Cn1cc(-c2ccc(=O)n(Cc3cccc(-c4ncc(OCCNC(=O)[C@@H]5CCCN5)cn4)c3)n2)cn1 6.00 to 8.00

* * *

// note: pIC50 values for Hepatocyte growth factor receptor (Homo sapiens) were reported in different studies
pIC50: −log10 of the molar value.

// solved cases for pIC50 follow
COCCOc1cc2nccc(Oc3ccc(NC(=O)c4c(OC)ccn(-c5ccc(F)cc5)c4=O)cc3F)c2c2c1OCCO2 : ≥ 7.30
Cn1cc(-c2ccc3nnc(Sc4ccc5ncn(C)c5c4)n3n2)cn1 : > 7.00
COc1cc2c(Oc3ccc(NC(=O)c4cc5nc(N(C)C)sc5n(-c5ccc(F)cc5)c4=O)cc3F)ccnc2cc1OCCCN1CCOCC1 : 7.00 to 8.00
Nc1ncc(-c2cccc(C(=O)NCCCn3ccnc3)c2)cc1-c1nc2ccccc2s1 : 4.70 to 6.00

Field request: pIC50 | item: O=C(Nc1cn2nc(Sc3nnc4ccc(-c5cccc(F)c5)cn34)ccc2n1)C1CC1 > 7.52

Then this molecule: COc1ccnc2ccc(Sc3nnc4ccc(-c5cnn(C)c5)nn34)cc12 > 7.00

And for COc1ccc(F)cc1C(C)Oc1nc(-c2cn(C)cn2)cnc1N (stereo not shown) ? < 4.70

For CCOC(=O)Nc1cccc(Cn2nc(-c3cccc(CC(=O)NCCCO)c3)ccc2=O)c1 then? 6.00 to 8.00

One more molecule: CNC(=O)c1cccc(-c2cnc(N)c(-c3nc4ccccc4s3)c2)c1 < 4.70

Try the molecule CCOC(=O)Nc1cccc(Cn2nc(-c3cc(F)c(OCCCCCN)c(F)c3)ccc2=O)c1 6.00 to 8.00

Okay, and Cc1nn2c(Cc3ccc4ncc(-c5cnn(C)c5)cc4c3)nnc2s1 ? > 7.00

Now try Nc1ncc(-c2cnn(CC(=O)N3CCOCC3)c2)cc1-c1nc2ccccc2s1 . 4.70 to 6.00

Next up: CN(C)Cc1ccc(-c2cc3c(s2)Cc2c(-c4ccc5cnn(C)c5c4)n[nH]c2-3)cn1 < 6.00

Consider next the molecule Cc1ccc2nnc(Sc3ccc4ncc(-c5cnn(CCN6CCOCC6)c5)cc4c3)n2n1 in the same way. > 7.00

* * *

From various publications: IC50 for Hepatocyte growth factor receptor (Homo sapiens, UniProt P08581).

Use the examples below as a reference point.
COCCOc1cc2nccc(Oc3ccc(NC(=O)c4cn(C(C)C)c(=O)n(-c5ccc(F)cc5)c4=O)cc3F)c2c2c1OCCO2 : ≤ 50 nM
Cn1cc(-c2cc(Oc3ccc(NC(=O)Nc4cc(C(F)(F)F)nn4C)c(F)c3)ccn2)cn1 : < 10000 nM
CN1CCC(n2cc(-c3cnc(N)c(-c4cc5c(Cl)ccc(F)c5cn4)c3)cn2)CC1 : 100 to 1000 nM
Cc1cc(C(=O)c2c[nH]c3ncc(-c4cccc(N)c4)cc23)nn1C : ≤ 10000 nM

# IC50 lookup, item CCOc1ccn(-c2ccc(F)cc2)c(=O)c1C(=O)Nc1ccc(Oc2ccnc3cc(OCCCOC)c4c(c23)OCCO4)c(F)c1 ≤ 50 nM

Also need COc1cc2nccc(Oc3ccc(NC(=O)c4cn(C(C)C)c(=O)n(-c5ccc(Cl)cc5)c4=O)cc3F)c2c2c1OCCO2 , thanks. 50 to 500 nM

Next: Cn1nnc2ccc(-c3n[nH]c4c3Cc3sc(-c5ccc(CN6CCOCC6)cc5)cc3-4)cc21 > 1000 nM

And then CNC(=O)c1ccc(-c2ccc3nnc(C(C)c4ccc5ncccc5c4)n3n2)cc1F (stereo not drawn) , what is it? < 100 nM

Lookup CCOC(=O)Nc1cccc(Cn2nc(-c3cccc(Br)c3)ccc2=O)c1 10 to 1000 nM
